Data provenance: patent US20170088532A1

Exercise: state measured inhibition at 50 µM for each of the compounds provided.
Target: E. Coli LpxC (Escherichia coli)
Sequence (P0A725 1-305): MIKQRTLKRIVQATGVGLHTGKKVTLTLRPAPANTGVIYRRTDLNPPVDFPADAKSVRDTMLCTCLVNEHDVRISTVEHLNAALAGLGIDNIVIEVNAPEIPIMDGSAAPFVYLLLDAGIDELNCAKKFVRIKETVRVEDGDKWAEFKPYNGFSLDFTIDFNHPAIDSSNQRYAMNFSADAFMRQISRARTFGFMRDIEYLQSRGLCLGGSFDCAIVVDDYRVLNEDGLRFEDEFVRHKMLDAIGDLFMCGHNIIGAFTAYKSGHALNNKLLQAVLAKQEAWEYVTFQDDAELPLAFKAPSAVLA
Experiment: Inhibition of LpxC from E. coli
Type: biochemical
Conditions: compound at 50 μM; Table 1; read-out: % Inhibition E. Coli LpxC at 50 μM
Number plus unit, in that order.

Ask: Could you share what inhibition at 50 µM was measured for `COc1ccc(-c2ccc(NCc3oc(CO)cc(=O)c3O)cc2)cc1` , tested on E. Coli LpxC (Escherichia coli)?
Result: 81%

Ask: Could you share what inhibition at 50 µM was measured for `COc1ccc(-c2ccc(NCc3occc(=O)c3O)cc2)cc1` , tested on E. Coli LpxC (Escherichia coli)?
Result: 13%

Ask: Could you share what inhibition at 50 µM was measured for `O=c1cc(CO)oc(CNc2ccc(-c3ccccc3)cc2)c1O` , tested on E. Coli LpxC (Escherichia coli)?
Result: 39%

Ask: Could you share what inhibition at 50 µM was measured for `O=c1ccoc(CNc2ccc(-c3ccccc3)cc2)c1O` , tested on E. Coli LpxC (Escherichia coli)?
Result: 67%

Ask: Could you share what inhibition at 50 µM was measured for `COC(=O)c1cc(=O)c(O)c(CNc2ccc(-c3ccc(OC)cc3)cc2)o1` , tested on E. Coli LpxC (Escherichia coli)?
Result: 29%

Ask: Could you share what inhibition at 50 µM was measured for `Cc1cc(=O)c(O)c(CNc2ccc(-c3ccccc3)cc2)o1` , tested on E. Coli LpxC (Escherichia coli)?
Result: 23%
